Where do these numbers come from? They come from PubChem BioAssay (NCI).

system: SNB-75 CNS; experiment: NCI tumour cell line growth inhibition, 48 h
// GI50 lookup, one value per entry
Readout Kind: GI50

>>> result("NC(=S)N/N=C/c1cc(-c2cccc(N)c2)ccn1")
"2.15 µM"
>>> result("C/C(=N\\NC(=S)N1CC2CCC(CC2)C1)c1ccccn1")
"0.643 µM"
>>> result("CC/C=C/C/C=C/C/C=C/C/C=C/C/C=C/C/C=C/CCC(=O)Nc1ccn([C@@H]2O[C@H](CO)[C@@H](O)C2(F)F)c(=O)n1")
"0.863 µM"
>>> result("C=CCN1CC2CON(C(=O)C(OC)(c3ccccc3)C(F)(F)F)C2C1C(C)C (centres undefined)")
"38.4 µg/mL"
>>> result("O=C(OCc1ccc2c(Cl)cc(Cl)c(O)c2n1)N1CCN(C(=O)c2cc3cc(F)ccc3[nH]2)CC1")
"2.85 µM"
>>> result("CCN(CC)c1cc2oc3cc(N)cc(=N)c-3nc2cc1C")
"2.84 µM"
>>> result("C=C1CC[C@@H](C(C)C)C[C@@H]2[C@H]([C@H](O)C[C@]2(C)O)[C@@]2(C)CC[C@@H]1O2")
"17 µM"
>>> result("COc1ccc(-c2csc(NC(=O)CSc3nc(C)c(-c4ccccc4)n3Nc3ccccc3)n2)cc1")
"12.8 µM"
>>> result("O=C(NO)c1ccc(CN(c2cnccn2)c2cnccn2)cc1")
"14.6 µM"

----------
test system: K-562 leukemia; experiment: NCI tumour cell line growth inhibition, 48 h
Readout Kind: TGI

>>> result("O=C(c1ccco1)C1CC(c2c(O)ccc3ccccc23)=NN1 (stereo not given)")
"> 100 µM"
>>> result("O=C(O)c1c2c(cc3c1CC1(Cc4ccccc4C1=O)C3)CCC2 (stereo not given)")
"33.6 µM"
>>> result("O=C(CNCc1ccccc1)Oc1c(Cl)c(Cl)c(Cl)c(Cl)c1Cl")
"> 100 µM"
>>> result("CC1=C(C(=O)NNS(=O)(=O)c2ccc(C)cc2)CC(C(=O)NNS(=O)(=O)c2ccc(C)cc2)=C(C)N1")
"> 100 µM"
>>> result("CN1CCN(c2ccc(Nc3ncc4cc(C#N)c(=O)n(C5CCCC5)c4n3)cc2)CC1")
"> 100 µM"
>>> result("COC(=O)C1=C(O)C(C(=O)OC)[C@@]2(O)[C@@H](C(=O)OC)[C@H](C)[C@@H](C)[C@@H]1[C@@H]2C(=O)OC (stereo not given in full)")
"> 100 µM"
>>> result("CCC(=O)Nc1ccc(N=NN(C)C)cc1")
"> 100 µM"
>>> result("COc1ccc(/C=C(/c2ccccc2)[N+](=O)[O-])cc1")
"> 100 µM"
>>> result("CCOC(=O)C1CN(C2CC2)CCC1=O (stereo not given)")
"> 100 µM"
>>> result("CC(C)(C)OC(=O)N1N=NC2C1C1CC(OCc3ccccc3)(OCc3ccccc3)C2O1 (stereo not given)")
"63.6 µM"

----------
// GI50 lookup, one value per entry
system: T-47D breast; experiment: NCI tumour cell line growth inhibition, 48 h
Readout Kind: GI50

>>> result("COc1ccc(-c2csc(NC(=O)CSc3nc(C)c(-c4ccccc4)n3Nc3ccccc3)n2)cc1")
"2.82 µM"
>>> result("C[C@H]1CCC/C=C/[C@@H]2C[C@H](O)C[C@H]2[C@H](O)[C@@H](SCC(O)CO)CC(=O)O1 (stereo not given in full)")
"45.2 µM"
>>> result("O=C(OCc1ccc2c(Cl)cc(Cl)c(O)c2n1)N1CCN(C(=O)c2cc3cc(F)ccc3[nH]2)CC1")
"> 100 µM"
>>> result("O=C(Nc1ccc(Cl)c(Cl)c1)Nc1ccccc1O")
"4.11 µM"
>>> result("O=c1oc2ccc(Br)cc2c(=O)n1-c1ccc(F)cc1F")
"1.77 µM"
